This section presents pIC50 values reported for Tubulin alpha chain (Sus scrofa) in the literature.
Lab note — pIC50 values are minus log10 of concentrations in M.

Some entries whose results are on file:
Identify measured pIC50 corresponding to COc1ccc(OC)c(C(=O)/C(C)=C/c2ccc(N(C)C)cc2)c1
7.92

Identify measured pIC50 corresponding to COc1ccc(-c2oc3cc(O)c(OC)c(O)c3c(=O)c2OC)cc1O
5.52

Identify measured pIC50 corresponding to COc1ccc(/C=C2\Oc3c(cc(OC)c(OC)c3OC)C2=O)cc1O
4.66

Identify measured pIC50 corresponding to COC(=O)Nc1nc2cc(C(=O)c3cc(CO)cs3)ccc2[nH]1
4.66

***
Identify measured pIC50 corresponding to COC(=O)Nc1nc2ccc(C(=O)c3cc(COC(=O)c4ccccc4)cs3)cc2[nH]1
5.71
